Target: egg albumin (Gallus gallus)
Sequence (P01012 2-386): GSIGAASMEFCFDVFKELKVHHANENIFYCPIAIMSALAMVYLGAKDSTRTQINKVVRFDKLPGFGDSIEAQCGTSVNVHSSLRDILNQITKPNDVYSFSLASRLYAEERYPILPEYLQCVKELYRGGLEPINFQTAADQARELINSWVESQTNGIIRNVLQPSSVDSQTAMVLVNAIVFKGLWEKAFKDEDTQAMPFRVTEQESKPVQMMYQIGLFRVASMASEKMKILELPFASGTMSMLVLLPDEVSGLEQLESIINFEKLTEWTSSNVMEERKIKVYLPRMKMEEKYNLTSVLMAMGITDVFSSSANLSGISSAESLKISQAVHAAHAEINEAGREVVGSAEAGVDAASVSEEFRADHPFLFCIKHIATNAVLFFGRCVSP
Test: Inhibition of protein denaturation method
Assay type: biochemical
Conditions: read-out: Inhibition of protein denaturation (%)
metric: inhibition at 50 µg/mL (%)

Solved entries:
compound	quantitative-result
NC1=NC(c2cccc(O)c2)n2nc(C(=O)Nc3ccc(S(N)(=O)=O)cc3)nc2N1 (stereo not shown)	55
NC1=NC(/C=C/c2ccccc2)n2nc(C(=O)Nc3ccc(S(N)(=O)=O)cc3)nc2N1 (stereo not shown)	53.7
NC1=NC(c2ccccc2O)n2nc(C(=O)Nc3ccc(S(N)(=O)=O)cc3)nc2N1 (stereo not shown)	83.4
NC1=NC(C2N=C(N)Nc3nc(C(=O)Nc4ccc(S(N)(=O)=O)cc4)nn32)n2nc(C(=O)Nc3ccc(S(N)(=O)=O)cc3)nc2N1 (stereo not shown)	54.7
NC1=NC(c2ccccc2Cl)n2nc(C(=O)Nc3ccc(S(N)(=O)=O)cc3)nc2N1 (stereo not shown)	59.5

A. CN(C)c1ccc(C2N=C(N)Nc3nc(C(=O)Nc4ccc(S(N)(=O)=O)cc4)nn32)cc1 (stereo not shown)
B. NC1=NC(c2ccco2)n2nc(C(=O)Nc3ccc(S(N)(=O)=O)cc3)nc2N1 (stereo not shown)
Incoming: Lower value for measured inhibition at 50 µg/mL? Options: A , B Output the label that corresponds to your choice.
Outgoing: A
(A: 55.8%, B: 90.3%)
